Attribution: the Immune Epitope Database (IEDB)

Provide the reported Kd of each item.
- system: HLA-A*02:03
- protocol-notes: IEDB peptide-MHC binding, purified MHC/competitive/fluorescence; filed as Kd, often an IC50 or EC50 that approximates it; bounds were set here for any values at or beyond the usual limits of such assays
- experimental-conditions: source organism: Human immunodeficiency virus 1
Put your answer as a value accompanied by its unit after it.

   sequence_chain       system  readout_name     val
0       DLADQLIHL  HLA-A*02:03            Kd  136 nM

Field: next sequence
Ask: Which Kd is reported for this sequence? "NLGQHIYET"
Result: 116 nM

---

- system: HLA-A*32:01
- protocol-notes: IEDB peptide-MHC binding, purified MHC/competitive/radioactivity; filed as Kd, often an IC50 or EC50 that approximates it; bounds were set here for any values at or beyond the usual limits of such assays
- experimental-conditions: source organism: Vaccinia virus Copenhagen
Provide the reported Kd of each item.
Give bare numbers, in µM.

>>> df
   sequence_chain   u    val
0       LTIGVNYDI  µM  0.525

Give one value of Kd per listed sequence.
1. LILSCIFAF
2. LMYNLLTII

Result:
0.427
0.0302
